Reported residual activity values follow for various compounds
study system: Discoidin domain-containing receptor 2 (Homo sapiens) (UniProt Q16832)
Sequence (Q16832 whole entry, the tested form may be a part): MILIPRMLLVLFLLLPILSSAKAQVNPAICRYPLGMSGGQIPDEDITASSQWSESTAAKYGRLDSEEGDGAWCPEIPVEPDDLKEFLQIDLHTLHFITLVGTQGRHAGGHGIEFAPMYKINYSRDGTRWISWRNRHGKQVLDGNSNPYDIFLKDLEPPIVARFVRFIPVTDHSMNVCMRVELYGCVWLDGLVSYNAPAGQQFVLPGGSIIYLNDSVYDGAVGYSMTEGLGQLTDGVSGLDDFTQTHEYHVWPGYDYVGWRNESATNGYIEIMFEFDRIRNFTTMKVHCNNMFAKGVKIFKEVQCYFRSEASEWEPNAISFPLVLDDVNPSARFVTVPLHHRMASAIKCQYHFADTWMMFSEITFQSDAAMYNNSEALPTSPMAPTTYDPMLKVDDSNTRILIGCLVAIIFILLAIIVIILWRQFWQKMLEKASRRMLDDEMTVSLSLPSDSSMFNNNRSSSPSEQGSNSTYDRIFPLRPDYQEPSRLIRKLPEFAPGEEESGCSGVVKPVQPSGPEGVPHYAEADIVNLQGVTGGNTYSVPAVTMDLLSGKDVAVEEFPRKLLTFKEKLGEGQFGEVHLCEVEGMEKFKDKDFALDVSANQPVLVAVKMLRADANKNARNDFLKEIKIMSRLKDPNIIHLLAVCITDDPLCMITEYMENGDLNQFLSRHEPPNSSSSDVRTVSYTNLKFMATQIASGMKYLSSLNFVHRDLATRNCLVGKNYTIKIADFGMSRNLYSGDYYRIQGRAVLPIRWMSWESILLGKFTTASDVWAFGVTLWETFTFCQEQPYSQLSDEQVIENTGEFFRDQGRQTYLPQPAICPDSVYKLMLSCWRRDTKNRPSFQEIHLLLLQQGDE
settings: at 10 µM
Kindly provide the numeric value in % only, without the unit symbol.

Request: For O=c1cc(N2CCOCC2)oc2c1ccc1ccccc12 , write its residual activity.
Result: 105

Request: Using the record for CCCCc1c(-c2ccc(OC)cc2)[nH]c2nccnc12 , state its measured residual activity.
Result: 59

Request: Assign residual activity to the following record: O=c1c(-c2ccc(F)cc2)c(-c2ccncc2)[nH]n1-c1ccc(Cl)cc1
Result: 36

Request: Output residual activity of COc1cc2nccc(Oc3ccc(NC(=S)NC(=O)c4ccccc4C)cc3)c2cc1OC
Result: 11

Request: Supply recorded residual activity for CCN(CC)CCNC(=O)c1c(C)[nH]c(/C=C2\C(=O)Nc3ccc(Cl)cc32)c1C here.
Result: 44

* * *

study system: Serine/threonine-protein kinase PLK3 (Homo sapiens)
settings: at 10 µM
Description: Millipore: Percentage of residual kinase activity of PLK3 at 10uM relative to control. Control inhibitor: Wortmannin at 100.0uM. Buffer: 8 mM MOPS pH 7.0, 0.2 mM EDTA
// n strictly below 80% in residual activity; y otherwise

> print(dat)
                                smiles.text  category
1  CC(C)[C@H](CO)Nc1nc(Nc2cc(N)cc(Cl)c2)c2ncn(C(C)C)c2n1         n

Moving on to the next molecule.
Request: Assess whether reported residual activity for Nc1ncnc2[nH]nc(Nc3ccc(F)cc3)c12 sits at 80% or higher.
Result: y

* * *

study system: Serine/threonine-protein kinase TAO3 (Homo sapiens)
settings: at 1 µM
property measured: residual activity (%)
Number in %, nothing else.

Previously resolved entries follow.
> print(dat)
                                   compound                              study.system  u  observed.value
1  O=C(NC(NC(=S)Nc1ccc(F)c([N+](=O)[O-])c1)C(Cl)(Cl)Cl)C(c1ccccc1)c1ccccc1 (stereo not given)  Serine/threonine-protein kinase TAO3 (Homo sapiens)  %              96
2    O=C1NC(=O)c2c1c1c3ccccc3[nH]c1n1cncc21  Serine/threonine-protein kinase TAO3 (Homo sapiens)  %              69
3  COc1ccc2c(c1)c(C1=C(c3c[nH]c4ccccc34)C(=O)NC1=O)cn2CCCN(C)C  Serine/threonine-protein kinase TAO3 (Homo sapiens)  %              82
4  O=C1NC(=O)C(c2c[nH]c3ccccc23)=C1c1c[nH]c2ccccc12  Serine/threonine-protein kinase TAO3 (Homo sapiens)  %              69
5  O=c1c(-c2ccc(F)cc2)c(-c2ccncc2)[nH]n1-c1ccc(Cl)cc1  Serine/threonine-protein kinase TAO3 (Homo sapiens)  %              99

Request: Specify reported residual activity for the compound shown: Cn1sc(=O)n(Cc2ccccc2)c1=O
Result: 91

Request: Could you please provide reported residual activity for CN(C)S(=O)(=O)c1ccc2c(c1)/C(=C/c1cc3c([nH]1)CCCC3)C(=O)N2 ? Thanks!
Result: 89

Request: Note down residual activity recorded for NC(=O)Nc1sc(-c2ccc(F)cc2)cc1C(N)=O
Result: 61

Request: Name the recorded residual activity of the item CCCC(=O)Oc1ccc2[nH]c(C(=O)c3cc4ccccc4[nH]3)cc2c1 in your answer.
Result: 89

Request: // Input: O=C(c1cc2cc(O)ccc2[nH]1)c1cc2cc(O)ccc2[nH]1 . Output its residual activity only.
Result: 66
